Where do the numbers come from? From paper PMC5881582.

Entries and their measured IC50 follow.
Target: recombinant human HDAC2 (Homo sapiens, UniProt Q92769)
Sequence (Q92769 whole entry): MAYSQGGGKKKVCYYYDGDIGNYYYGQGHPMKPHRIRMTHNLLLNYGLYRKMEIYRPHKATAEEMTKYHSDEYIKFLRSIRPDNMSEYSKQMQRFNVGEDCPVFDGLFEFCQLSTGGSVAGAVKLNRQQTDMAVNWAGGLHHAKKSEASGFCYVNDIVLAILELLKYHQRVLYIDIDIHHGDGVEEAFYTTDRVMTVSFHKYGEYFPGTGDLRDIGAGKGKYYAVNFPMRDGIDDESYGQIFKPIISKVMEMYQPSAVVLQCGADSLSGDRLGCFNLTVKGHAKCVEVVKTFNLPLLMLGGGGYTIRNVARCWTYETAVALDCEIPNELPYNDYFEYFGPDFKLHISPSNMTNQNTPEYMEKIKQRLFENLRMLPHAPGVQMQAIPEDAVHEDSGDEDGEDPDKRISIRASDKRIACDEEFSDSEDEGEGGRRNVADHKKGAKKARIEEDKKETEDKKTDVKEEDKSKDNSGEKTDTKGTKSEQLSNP
Assay: competitive fluorescence-based HDAC deacetylase assay, Boc-L-Lys
Details: read-out: IC50 HDAC2; mean ± SD of at least two independent experiments
Write the value in nM as a bare number.

{"compound": "O=C(CCCCCCNCc1cc2ccccc2[nH]1)NO [compound 2j]", "units-symbol": "nM", "measured-result": 260}

Here is another compound to look at.
Endpoint output: IC50 of O=C(CCCCCCNCc1ccc2ccccc2c1)NO [compound 2g] . Value? 320

---

System: HT-29 cells
Assay: antiproliferative alamarBlue assay
Conditions: read-out: EC50 HT-29 24 h; 24 h, n=4
pEC50: −log10 of the molar value.
measurement-type: pEC50

Endpoint output: pEC50 of O=C(CCCCCCNCc1ccc2ccccc2c1)NO . Value? < 4.30

Same lookup for O=C(CCCCCCNCc1cc2ccccc2[nH]1)NO , please. < 4.30

---

Tested on: HT-29 cells
Assay: antiproliferative alamarBlue assay
Settings: read-out: EC50 HT-29 48 h; 48 h, n=4
Entries and their measured pEC50 follow.
When answering, recall that pEC50 equals minus log10 of the concentration in mol/L, and write that number alone.

{"chemical-smiles": "O=C(CCCCCCNCc1cc2ccccc2[nH]1)NO", "experimental-target": "HT-29 cells", "pEC50": 5.68}

Endpoint output: pEC50 of O=C(CCCCCCNCc1ccc2ccccc2c1)NO . Value? 5.96

---

Test system: SH-SY5Y cells
Test: antiproliferative alamarBlue assay
Details: read-out: EC50 SH-SY5Y 48 h; 48 h, n=4
measurement-type: pEC50
When answering, recall that pEC50 equals minus log10 of the concentration in mol/L, and write that number alone.

{"chemical-smiles": "O=C(CCCCCCNCc1ccc2ccccc2c1)NO", "pEC50": 5.92}

Here is another compound to look at.
Endpoint output: pEC50 of O=C(CCCCCCNCc1cc2ccccc2[nH]1)NO . Value? 5.89

---

Entries and their measured IC50 follow.
Target: purified recombinant human HDAC8 (Homo sapiens)
Sequence (Q9BY41 1-377): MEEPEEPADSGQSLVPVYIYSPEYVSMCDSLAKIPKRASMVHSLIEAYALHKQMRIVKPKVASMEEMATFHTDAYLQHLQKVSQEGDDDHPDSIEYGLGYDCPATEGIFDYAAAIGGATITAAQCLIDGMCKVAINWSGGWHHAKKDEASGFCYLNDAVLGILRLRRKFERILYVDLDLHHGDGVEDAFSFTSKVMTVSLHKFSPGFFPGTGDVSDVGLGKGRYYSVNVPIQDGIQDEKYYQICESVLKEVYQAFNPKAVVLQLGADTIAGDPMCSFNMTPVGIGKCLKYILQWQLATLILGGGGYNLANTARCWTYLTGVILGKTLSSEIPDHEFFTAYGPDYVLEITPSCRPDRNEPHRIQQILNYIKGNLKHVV
Test: fluorescence-based HDAC8 assay, commercially available HDAC substrate
Conditions: read-out: IC50 HDAC8; mean ± SD of at least two independent experiments
Write the value in nM as a bare number.

{"chemical-smiles": "O=C(CCCCCCNCc1cc2ccccc2[nH]1)NO", "IC50 [nM]": 620}

Endpoint output: IC50 of O=C(CCCCCCNCc1ccc2ccccc2c1)NO . Value? 320
